- TESTED_SYSTEM: BRAF (Homo sapiens)
- Construct: purchased Invitrogen
- Sequence (P15056 whole entry): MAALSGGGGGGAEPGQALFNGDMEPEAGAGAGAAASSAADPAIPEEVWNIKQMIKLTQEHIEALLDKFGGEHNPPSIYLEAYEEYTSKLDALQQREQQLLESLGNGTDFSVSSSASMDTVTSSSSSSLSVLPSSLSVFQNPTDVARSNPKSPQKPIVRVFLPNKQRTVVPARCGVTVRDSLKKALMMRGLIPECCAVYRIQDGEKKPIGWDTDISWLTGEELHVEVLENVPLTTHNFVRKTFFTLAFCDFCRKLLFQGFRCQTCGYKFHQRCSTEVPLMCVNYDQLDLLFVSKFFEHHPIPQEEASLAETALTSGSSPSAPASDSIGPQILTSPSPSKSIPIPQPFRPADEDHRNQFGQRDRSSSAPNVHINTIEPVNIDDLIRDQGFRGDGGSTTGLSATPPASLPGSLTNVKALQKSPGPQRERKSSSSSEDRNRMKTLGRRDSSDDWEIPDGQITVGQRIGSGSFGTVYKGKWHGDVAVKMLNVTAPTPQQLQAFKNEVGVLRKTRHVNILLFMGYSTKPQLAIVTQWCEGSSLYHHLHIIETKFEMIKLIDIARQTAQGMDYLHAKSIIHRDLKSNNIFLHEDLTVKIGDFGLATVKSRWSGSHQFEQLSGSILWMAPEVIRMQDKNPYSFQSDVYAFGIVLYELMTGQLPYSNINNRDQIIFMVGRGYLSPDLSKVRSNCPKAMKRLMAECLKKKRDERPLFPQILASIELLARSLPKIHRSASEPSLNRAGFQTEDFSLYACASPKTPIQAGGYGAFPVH
- ASSAY_REMARKS: Z'-LYTE kinase inhibition assay (Invitrogen), BRAF
- Assay type: biochemical
- RUN_PARAMETERS: compound at 1 μM; Z'-LYTE method
RESULT_TYPE: inhibition at 1 µM

Solved cases (3 shown):
>>> result("O=C(c1ccc2nccnc2c1)c1c(F)ccc(OCc2cccc(F)c2)c1F")
"30 to 89%"
>>> result("O=C(c1ccc2nccnc2c1)c1c(F)ccc(OCc2cccc(Cl)c2)c1F")
"30 to 89%"
>>> result("O=C(c1ccc2nccnc2c1)c1c(F)ccc(OCc2ccccc2)c1F")
"30 to 89%"

Lab note: next molecule to report on.
Enquiry: Requested read-out: inhibition at 1 µM. Entry: `COc1ccc(F)c(C(=O)c2ccc3nccnc3c2)c1F`
Return: < 30%
